- Test system: C3H mice
- procedure summary: Hair growth suppression in mouse (shaved back, topical application)
- Type: in vivo
- assay setup: Mus musculus, topical, 504 h; 0.1% in 80% ethanol, 100 μL twice a day on shaved back; area of hair regrowth after three weeks relative to control; read-out: Hair-growth suppression ratio
Measured response vs control in vivo at 0.1 % accompanies every entry in the list below.
quantity kind: response vs control in vivo at 0.1 % (%)

{"columns": ["entry smiles", "assayed system", "quantity kind", "measured value"],
 "data": [
  ["CC(=O)N[C@@H](Cc1ccccc1)C(=O)NCCC(=O)O", "C3H mice", "response vs control in vivo at 0.1 %", 58.3],
  ["CC(C)C[C@H](NC(=O)[C@H](Cc1ccccc1)NCC(=O)O)C(=O)O", "C3H mice", "response vs control in vivo at 0.1 %", 72.3],
  ["C[C@H](NC(=O)[C@H](Cc1ccccc1)NCC(=O)O)C(=O)O", "C3H mice", "response vs control in vivo at 0.1 %", 80.5],
  ["CN(C)[C@@H](Cc1ccccc1)C(=O)NCCC(=O)O", "C3H mice", "response vs control in vivo at 0.1 %", 69.6],
  ["CC(C)C[C@H](NCC(=O)O)C(=O)NCCC(=O)O", "C3H mice", "response vs control in vivo at 0.1 %", 77.1],
  ["O=C(O)CCNC(=O)[C@H](Cc1ccccc1)NCC(=O)O", "C3H mice", "response vs control in vivo at 0.1 %", 82.4],
  ["CCCN[C@@H](Cc1ccccc1)C(=O)NCCC(=O)O", "C3H mice", "response vs control in vivo at 0.1 %", 77.8],
  ["O=C(O)CN[C@@H](Cc1ccccc1)C(=O)N[C@@H](CC(=O)O)C(=O)O", "C3H mice", "response vs control in vivo at 0.1 %", 71],
  ["O=C(O)CCCNC(=O)[C@H](Cc1ccccc1)NCC(=O)O", "C3H mice", "response vs control in vivo at 0.1 %", 73.3]
]}
